Target: T1, His9-hMSR1 (human MSR1 extracellular domain) (Homo sapiens, UniProt P21757)
T1 construct: human MSR1 extracellular domain expressed with a N-terminal nonahistidine tag; His9 (nonahistidine) (N); purchased R&D Systems 2708-MS
T1 sequence (P21757 77-451 limits assumed): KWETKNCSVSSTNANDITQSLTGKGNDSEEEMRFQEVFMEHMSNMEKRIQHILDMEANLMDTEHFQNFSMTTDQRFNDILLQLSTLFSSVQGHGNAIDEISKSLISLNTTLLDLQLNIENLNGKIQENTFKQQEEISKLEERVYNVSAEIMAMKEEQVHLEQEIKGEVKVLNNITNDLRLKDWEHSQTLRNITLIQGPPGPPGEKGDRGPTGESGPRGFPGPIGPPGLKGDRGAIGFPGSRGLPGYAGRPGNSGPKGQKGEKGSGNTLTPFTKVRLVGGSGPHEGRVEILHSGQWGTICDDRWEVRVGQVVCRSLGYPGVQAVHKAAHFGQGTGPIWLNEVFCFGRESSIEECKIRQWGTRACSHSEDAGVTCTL
Assay: Biacore surface plasmon resonance binding kinetics of anti-MSR1 mAbs, antibody-capture format
Settings: 37° C.; analyte His9-hMSR1; * = no dissociation observed, kd manually fixed at 1.00E−05; NB = no binding observed
property-name: kd (s⁻¹)
Answer in s⁻¹, number only, no unit symbol.

Kindly indicate its recorded kd. Item: H1H21227N: "anti-MSR1 antibodies ... (21227N, 21231N, 21234N) were produced with the original human Fcγ portion"; "H1H" = human IgG1 Fc (antibody, V domains shown, human IgG1 Fc, "anti-MSR1 antibodies ; (21227N, 21231N, 21234N) were produced with the original human Fcγ portion"; "H1H" = human IgG1 Fc) VH: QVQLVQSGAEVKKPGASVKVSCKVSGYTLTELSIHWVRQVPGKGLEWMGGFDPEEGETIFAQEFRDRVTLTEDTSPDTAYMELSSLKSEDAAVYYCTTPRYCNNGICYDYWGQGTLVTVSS VL: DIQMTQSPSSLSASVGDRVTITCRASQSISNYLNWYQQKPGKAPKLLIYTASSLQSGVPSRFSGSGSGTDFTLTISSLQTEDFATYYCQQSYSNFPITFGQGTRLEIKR
1.85e-05
